ADCC EC50 by entry:
- System Name: human Claudin18.2 (human)
- Test Name: cell-based or functional assay
Value expressed in µg/mL; do not type the unit.

The cases that follow already have their ADCC EC50 on record.
1) chimeric 246B5F2 (antibody, human IgG1, kappa, V domains shown, chimeric, human IgG1/kappa constant regions; also called 246B5F2-Chimeric) VH: EVMLVESGGGLMKPGGSLKLSCAASEFTFSNYAMSWVRQTPEKRLEWVATISSGRSSTYYPDSVKGRFTISRDNAKNTLYLQMSSLRSEDTAMYYCAGLGRGNAMEYWGQGTSVTVSS VL: DIVMTQSPSSLTVTAGEKVTLSCKSSQSLLNSGNQKNYLTWYQQKPGQPPKLLIYWASTRESGVPDRFTGSGSGTDFILTINSVQAEDLAVYYCQNAYSYPFTFGSGTKLEIKR: 0.023
2) chimeric 418D2F9 (antibody, human IgG1, kappa, V domains shown, chimeric, human IgG1/kappa constant regions) VH: DVQLVESGGGLVQPGGSRKLSCAASGFTFSSFGMHWVRQAPEKGLEWVAYINTGSSTIYYADTVKGRFTISRDNPKNTLFLQMTSLRSEDTAMYYCARIYYGNSFVYWGQGTLVTVSA VL: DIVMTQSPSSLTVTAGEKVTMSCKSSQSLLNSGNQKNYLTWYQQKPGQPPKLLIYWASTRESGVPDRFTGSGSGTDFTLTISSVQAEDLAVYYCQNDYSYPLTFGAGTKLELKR: 0.103
3) chimeric 370E2B12C3 (antibody, human IgG1, kappa, V domains shown, chimeric, human IgG1/kappa constant regions; also called 370E2B12C3-chimeric) VH: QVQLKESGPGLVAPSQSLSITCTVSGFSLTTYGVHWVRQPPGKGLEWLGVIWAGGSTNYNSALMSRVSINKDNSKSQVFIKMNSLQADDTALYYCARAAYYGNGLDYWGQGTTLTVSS VL: DIVMTQSPSSLTVTAGEKVTMSCKSSQTLLNSGNQKNYLTWYQQKPGQPPKLLIYWASTGESGVPDRFTGSGSGTDFTLTISSVQAEDLAVYFCQNAYFYPFTFGGGTKLEIKR: 0.0335
4) chimeric 257B1G9 (antibody, human IgG1, kappa, V domains shown, chimeric, human IgG1/kappa constant regions) VH: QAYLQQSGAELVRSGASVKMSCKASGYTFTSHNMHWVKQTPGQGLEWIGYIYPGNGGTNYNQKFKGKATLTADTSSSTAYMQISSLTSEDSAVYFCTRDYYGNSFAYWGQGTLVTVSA VL: DIVMTQSPSSLTERAGERVSMSCKSSQSLFNSGNQKNYLTWYQQKPGQPPKLLIYWASTRESGVPDRFTGSGSGTDFTLTISSVQAEDLAVYYCQNDYRYPFTFGAGTKLELKR: 0.0454
5) chimeric 252F1B10 (antibody, human IgG1, kappa, V domains shown, chimeric, human IgG1/kappa constant regions) VH: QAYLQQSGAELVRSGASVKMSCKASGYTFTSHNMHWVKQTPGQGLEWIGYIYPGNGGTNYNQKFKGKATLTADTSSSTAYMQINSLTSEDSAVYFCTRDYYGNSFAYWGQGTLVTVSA VL: DIVMTQSPSSLTEKAGERVSMSCKSSQSLFNSGNQKNYLTWYQQKPGQPPKLLIYWASTRESGVPDRFTGSGSGTDFTLTISSVQAEDLAVYYCQNDYRYPFTFGAGTKLELKR: 0.0357

Qu. Please report the recorded ADCC EC50 for chimeric 412B6E4 (antibody, human IgG1, kappa, V domains shown, chimeric, human IgG1/kappa constant regions; also called 412B6E4-Chimeric) VH: DVQLVESGGGLVQPGGSRKLSCAASGFTFSSFGVHWVRQAPEKGLEWVAYISSGSSTIYYAHSVKGRFTISRDNPKNTLFLQMTSLGSEDTATYYCARFYYGNSFAYWGQGTLVTVSA VL: DIVMTQSPSSLTVTAGEKVTMSCKSSQSLLNSGNQKNYLTWYQQKPGQPPKMLIYWASTRESGVPDRFTGSGSGTDFTLTISSVQAEDLAVYYCQNAYTYPLTFGAGTRLELKR .
Ans. 0.00494

Qu. What value of ADCC EC50 has been reported for the following binder? chimeric 252E7C9 (antibody, human IgG1, kappa, V domains shown, chimeric, human IgG1/kappa constant regions) VH: QTYLQQSGAELVRSGASVKMSCRTSGYSFTSHNMHWVKQTPGQGLEWIGYIYPGNGGSYYNQKFKGKAILTADTSSSTAYMQISSLTSEDSAVYFCTRDYYGNSFVYWGQGTLVTVSA VL: DVVMTQSPSSLTEKTGEKVSMSCKSSQSLLNSGNQKNYLTWYQQKPGQPPKLLIYWASTRESGVPDRFTGSGSGTDFTLTISSLQTEDLAIYYCQNNFRYPFTFGAGTKLELKR
Ans. 0.0311

Qu. Given the entry chimeric 194D3B2 (antibody, human IgG1, kappa, V domains shown, chimeric, human IgG1/kappa constant regions) VH: QAYLQQSGAELVRSGASVKMSCKASGYPFTSYNMHWVKQTPGQGLEWVGYIYPGNGGTNYNQKFRDKATLTADTSSSTAYMQISRLTSDDSAVYFCLTGRGFAYWGQGTLVTVSA VL: DIVMTQSPSSLIVTPGERVTMSCKSSQSLLNSGNQKNYLTWYQQKPGQPPKLLIYRASTRESGVPDRFTGSGSGTDFTLTISSVQAEDLAVYYCQNDYSYPLTFGIGTKLELKR , report its measured ADCC EC50.
Ans. 0.0291

Qu. # query: ADCC EC50 of entry chimeric 203A6C9 (antibody, human IgG1, kappa, V domains shown, chimeric, human IgG1/kappa constant regions) VH: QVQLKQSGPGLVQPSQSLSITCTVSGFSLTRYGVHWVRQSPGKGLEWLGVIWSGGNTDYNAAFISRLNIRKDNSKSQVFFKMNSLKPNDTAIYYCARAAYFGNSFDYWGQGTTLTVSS VL: DIVMTQSPSSLPVTAGEKVTMSCKSSQSLLNSGNQKNYLTWYQQKPGQPPKLLIYWASTRDSGVPDRFTGSGSGTDFTLTISSVQAEDLAVYYCQNNYIYPLTFGAGTKLELKR
Ans. 0.0367

Qu. Which measured ADCC EC50 value corresponds to chimeric 232C5E3 (antibody, human IgG1, kappa, V domains shown, chimeric, human IgG1/kappa constant regions; also called 232C5E3-Chimeric) VH: QAYLQQSGAELVRSGASVKMSCKASGYTFTSHNIHWIKQTPGKGLEWIGYIYPGNGGTNYNQKFKAKATLTADTSSSTAYMQISSLTSEDSAVYFCARDYYGNSFAYWGQGTLVTVSA VL: DIMMTQSPSSLTETAGEKVSMSCKSSQSLLNSGNQKNYLTWYQQKPGQPPKLLIYWASTRESGVPDRFSGSGSGTDFTLTISSVQAEDLAVYYCQNGYRFPFTFGAGTKLELKR ?
Ans. 0.00782
